- Measured Target: recombinant human 5-HT3A receptors (Homo sapiens (Human))
- Procedure Details: agonist activity (Ca2+ fluorescence, Fluo-4) in HEK293 cells expressing the h5-HT3A receptor subunit
- Assay type: cell-based
- Stated Conditions: HEK293, read-out: HEK293 h5-HT3A % agonist response
- Procedure: Human embryonic kidney (HEK293) cells expressing the h5-HT3A receptor subunit were seeded directly into poly-D-lysine coated, black-walled, clear bottomed, 96 well plates with approximately 1×10^5 cells per well. […] Alteration in [Ca^2+], was measured (relative fluorescence units [RFU]) using a Flexstation (excitation 488 nm and emission 515 nm; frequency of recording 3 sec). […]
Reported Metric: activation at 10 µM (%)
Expressed in %, but write only the number.

Consider the following illustrative entries.
{"Compound Structure": "O=C1c2cccc3[nH]cc(c23)CCN1[C@H]1CN2CCC1CC2", "Value Reported": 14}
{"Compound Structure": "Cn1cc2c3c(cccc31)C(=O)N([C@H]1CN3CCC1CC3)CC2", "Value Reported": 13}
{"Compound Structure": "Cn1nc2c3c(cccc31)C(=O)N([C@H]1CN3CCC1CC3)C2", "Value Reported": 6}

What measured activation at 10 µM goes with Cn1nc2c3c(cc(F)cc31)C(=O)N([C@H]1CN3CCC1CC3)C2 ? 6

Requested read-out: activation at 10 µM. Entry: CC(C)n1nc2c3c(cccc31)C(=O)N([C@H]1CN3CCC1CC3)C2 3

---

- Measured Target: recombinant human 5-HT3A receptors (Homo sapiens (Human), UniProt P46098)
- Sequence (P46098 24-478): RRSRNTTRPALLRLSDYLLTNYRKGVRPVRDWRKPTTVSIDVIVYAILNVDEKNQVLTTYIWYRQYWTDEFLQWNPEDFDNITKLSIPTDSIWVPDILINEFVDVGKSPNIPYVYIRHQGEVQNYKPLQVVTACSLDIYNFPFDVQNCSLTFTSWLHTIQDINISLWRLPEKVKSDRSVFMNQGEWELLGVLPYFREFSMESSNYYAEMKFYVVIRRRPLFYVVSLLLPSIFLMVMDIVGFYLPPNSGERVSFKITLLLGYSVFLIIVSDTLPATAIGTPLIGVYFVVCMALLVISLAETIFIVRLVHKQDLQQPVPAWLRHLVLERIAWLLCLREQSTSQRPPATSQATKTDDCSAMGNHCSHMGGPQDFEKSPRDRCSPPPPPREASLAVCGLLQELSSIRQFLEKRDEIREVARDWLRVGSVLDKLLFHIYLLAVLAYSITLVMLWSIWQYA
- Procedure Details: agonist activity (Ca2+ fluorescence, Fluo-4) in HEK293 cells expressing the h5-HT3A receptor subunit
- Format: cell-based
- Stated Conditions: HEK293, read-out: HEK293 h5-HT3A % agonist response
Consider the following compounds and their measured activation at 10 µM readings.
Please state the number and follow it with the unit.

Previously resolved entries follow.
{"Compound": "CCn1nc2c3c(cccc31)C(=O)N([C@H]1CN3CCC1CC3)C2 [Example 14]", "activation at 10 µM": "4%"}
{"Compound": "O=C1c2cccc3[nH]nc(c23)CN1[C@H]1CN2CCC1CC2 [Example 16]", "activation at 10 µM": "35%"}

Next up:
For the compound Cn1cc2c3c(cccc31)C(=O)N([C@@H]1CN3CCC1CC3)CC2 [Example 31] , what activation at 10 µM is on record? 5%

---

- Measured Target: human 5-HT3 receptor (Homo sapiens (Human), UniProt P46098)
- Sequence (P46098 24-478): as above
- Procedure Details: radioligand binding assay (SPA format), [9-methyl-3H]BRL-43694 displacement
Reported Metric: pKi
Field pKi (float): negative decimal logarithm of the concentration in molar.

Quick one: pKi for O=C1c2cccc3c2c(nn3-c2ccc(Cl)cc2)CN1[C@H]1CN2CCC1CC2 ? 7.17

State the recorded pKi for this entry: Cn1nc2c3c(cccc31)C(=O)N([C@H]1CN3CCC1CC3)C2 8.70

What does the record list as pKi for CN1C2CCC1CC(N1Cc3nn(C)c4cccc(c34)C1=O)C2 (stereo not shown) ? 7.23

Using the record for CCn1nc2c3c(cccc31)C(=O)N([C@@H]1CN3CCC1CC3)C2 , report its pKi. 9.00

Reported pKi for CN1C2CCCC1CC(N1Cc3nn(C)c4cccc(c34)C1=O)C2 (stereo not shown) : what is it? 7.47

If you can, please state the reported pKi value of COc1ccc(-n2nc3c4c(cccc42)C(=O)N([C@H]2CN4CCC2CC4)C3)cc1 . 7.24

Given the entry CC(C)Cn1nc2c3c(cccc31)C(=O)N([C@@H]1CN3CCC1CC3)C2 , report its measured pKi. 8.70

Requested field: pKi. Item: O=C1c2cc(Br)cc3[nH]nc(c23)CN1[C@H]1CN2CCC1CC2 9.00

Field request: pKi | item: Cn1nc2c3c(cccc31)C(=O)N([C@@H]1CN3CCC1CC3)C2 9.00

Name the recorded pKi for O=C1c2cccc3c2c(nn3Cc2ccccc2)CN1[C@H]1CN2CCC1CC2 . 8.30

Data provenance is patent US8501729B2.
